Tested on: HT29 colon
Test: NCI tumour cell line growth inhibition, 48 h
EXPERIMENTAL_READOUT: TGI (µM)
Use µM as the unit, but write only the number.

Worked examples, 5 compounds total:
[[record]]
compound = "COc1ccc2c(c1)CC[C@@H]1[C@@H]2CC[C@]2(C)/C(=N/OCCN3CCCC3)CC[C@@H]12"
experimental_readout = "TGI"
measured = 3.96

[[record]]
compound = "C/C(=N\\Nc1ccccc1)c1sc(-c2nc(C)c(/C(C)=N/Nc3ccccc3)s2)nc1C"
experimental_readout = "TGI"
measured = 26.2

[[record]]
compound = "NC(N)=NN=c1c(=O)c2ccccc2c1=O"
experimental_readout = "TGI"
measured = 6.27

[[record]]
compound = "O/N=C1/CCCC/C1=C/C=C/c1ccccc1"
experimental_readout = "TGI"
measured = 32.9

[[record]]
compound = "Oc1ccc2ccccc2c1CCc1c(O)ccc2ccccc12"
experimental_readout = "TGI"
measured = 18.6


For the next question, use this compound.
Item: OC1(c2ccccc2)CC2CCC(C1)N2CCCC(O)(c1ccccc1)c1ccccc1 (stereo unspecified) Test system: HT29 colon Read-out: TGI Value: ? 9.64

---

Tested on: SF-539 CNS
Test: NCI tumour cell line growth inhibition, 48 h
EXPERIMENTAL_READOUT: TGI

[[record]]
compound = "O=C(Nc1ccccc1)c1cc2ccccc2c(N=Nc2cccc([N+](=O)[O-])c2)c1O"
measured = "> 100 µM"

[[record]]
compound = "Cc1cc(=O)oc2c(C3=NN(C=O)C(c4ccccc4)C3)c(O)ccc12 (stereo unspecified)"
measured = "> 94.4 µM"

[[record]]
compound = "C[C@@H]1CC[C@H]2[C@@H](C)C(O)O[C@@H]3O[C@]4(C)CC[C@@H]1[C@]32OO4 (stereo partly specified)"
measured = "14.2 µM"


What is its TGI for SF-539 CNS? Entry: "CC(C)OP(=O)(OC(C)C)C(=NCCO)NNc1ccc([N+](=O)[O-])cc1" > 100 µM

Could you share what TGI was measured for "N/C(=N\N=C\c1cc2ccccc2s1)c1cnccn1" , tested on SF-539 CNS? > 100 µM

// map "COc1cccc(/C=N/[N-]C(=O)c2ccncc2)c1[O-].[Mn+2].[OH3+]" to recorded TGI (system: SF-539 CNS) 8.97 µM

Short answer please: TGI, SF-539 CNS, entry "Cc1ccc2c(c1)[n+](=O)c(C(=O)c1cccs1)c(C(F)(F)F)n2[O-]" 2.36 µM

Enter reported TGI observed with SF-539 CNS for C/C=C/CC(C(=O)OCC)(N(C)C(=O)OC(C)(C)C)S(=O)(=O)c1ccc(C)cc1 (stereo unspecified) > 100 µM

---

System: SN12C renal
Assay: NCI tumour cell line growth inhibition, 48 h
EXPERIMENTAL_READOUT: TGI

[[record]]
compound = "CC(=O)OC1C[C@H]2C(OC(=O)c3ccccc3)C3C4(OC(C)=O)COC4C[C@H](OC(C)=O)[C@@]3(C)C(OC(C)=O)[C@H](OC(C)=O)C(=C1C)C2(C)C (stereo partly drawn)"
experimental_readout = "TGI"
measured = "> 100 µM"


// returns reported TGI for input "CCOC(=O)NN(C(=O)OCC)c1ccc(N=Nc2ccc(OC)cc2)n1C" > 100 µM

GET /values?readout=TGI&item= "Nc1n[n+]([O-])c2cc([N+](=O)[O-])ccc2[n+]1[O-]" 18.1 µM
